target: T1, cyBCMA (cynomolgus, UniProt A0A2K5UD97 1-53); assay: SPR, immobilised IgG, 25° C
T1 construct: Soluble analyte in SPR; construct not described; also called cyno BCMA
T1 sequence (A0A2K5UD97 entry or part of it): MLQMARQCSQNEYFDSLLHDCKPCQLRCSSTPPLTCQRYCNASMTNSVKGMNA
READOUT TYPE: T½ (min)

| BINDER | VALUE REPORTED |
| --- | --- |
| L3.NY/P6E01 (antibody, V domains shown, IgG in the assay) VH: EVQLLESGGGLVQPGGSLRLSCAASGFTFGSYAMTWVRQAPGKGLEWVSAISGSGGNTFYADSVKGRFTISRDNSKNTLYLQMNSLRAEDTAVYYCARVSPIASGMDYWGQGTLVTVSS VL: EIVLTQSPGTLSLSPGERATLSCRASQSVSSSYLAWYQQKPGQAPRLLIYGASSRATGIPDRFSGSGSGTDFTLTISRLEPEDFAVYYCQHYNYPPSFTFGQGTKVEIK | 4 |
| L1.LGF/L3.NY/H3.AL (antibody, V domains shown, IgG in the assay) VH: EVQLLESGGGLVQPGGSLRLSCAASGFTFGSYAMTWVRQAPGKGLEWVSAISGSGGNTFYADSVKGRFTISRDNSKNTLYLQMNSLRAEDTAVYYCARVSPIAALMDYWGQGTLVTVSS VL: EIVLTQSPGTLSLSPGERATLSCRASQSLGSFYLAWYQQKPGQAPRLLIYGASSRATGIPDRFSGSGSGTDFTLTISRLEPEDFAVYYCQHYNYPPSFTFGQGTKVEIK | 0.8 |
